Data provenance: patent US20250100996A1

tgt: IKZF3 (Aiolos) (Homo sapiens, UniProt Q9UKT9)
Construct: Leu-Asp junction (codons ctcgac before the linker); mScarlet (behind P2A) (C, cleaved yes); expressed in transfected cells
Sequence (Q96SW2 whole entry partner): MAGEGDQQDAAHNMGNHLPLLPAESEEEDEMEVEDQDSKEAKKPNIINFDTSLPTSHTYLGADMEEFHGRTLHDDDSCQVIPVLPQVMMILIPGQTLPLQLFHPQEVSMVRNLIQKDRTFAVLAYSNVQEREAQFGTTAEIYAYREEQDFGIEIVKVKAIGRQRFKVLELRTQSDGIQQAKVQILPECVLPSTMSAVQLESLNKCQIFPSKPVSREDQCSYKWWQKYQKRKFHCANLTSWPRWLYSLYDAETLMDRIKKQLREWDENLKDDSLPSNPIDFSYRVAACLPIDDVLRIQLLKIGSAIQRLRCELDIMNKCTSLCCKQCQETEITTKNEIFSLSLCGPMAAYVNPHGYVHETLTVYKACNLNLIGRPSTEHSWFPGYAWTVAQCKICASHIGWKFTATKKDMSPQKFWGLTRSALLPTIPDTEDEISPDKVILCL
Sequence (Q16531 whole entry partner): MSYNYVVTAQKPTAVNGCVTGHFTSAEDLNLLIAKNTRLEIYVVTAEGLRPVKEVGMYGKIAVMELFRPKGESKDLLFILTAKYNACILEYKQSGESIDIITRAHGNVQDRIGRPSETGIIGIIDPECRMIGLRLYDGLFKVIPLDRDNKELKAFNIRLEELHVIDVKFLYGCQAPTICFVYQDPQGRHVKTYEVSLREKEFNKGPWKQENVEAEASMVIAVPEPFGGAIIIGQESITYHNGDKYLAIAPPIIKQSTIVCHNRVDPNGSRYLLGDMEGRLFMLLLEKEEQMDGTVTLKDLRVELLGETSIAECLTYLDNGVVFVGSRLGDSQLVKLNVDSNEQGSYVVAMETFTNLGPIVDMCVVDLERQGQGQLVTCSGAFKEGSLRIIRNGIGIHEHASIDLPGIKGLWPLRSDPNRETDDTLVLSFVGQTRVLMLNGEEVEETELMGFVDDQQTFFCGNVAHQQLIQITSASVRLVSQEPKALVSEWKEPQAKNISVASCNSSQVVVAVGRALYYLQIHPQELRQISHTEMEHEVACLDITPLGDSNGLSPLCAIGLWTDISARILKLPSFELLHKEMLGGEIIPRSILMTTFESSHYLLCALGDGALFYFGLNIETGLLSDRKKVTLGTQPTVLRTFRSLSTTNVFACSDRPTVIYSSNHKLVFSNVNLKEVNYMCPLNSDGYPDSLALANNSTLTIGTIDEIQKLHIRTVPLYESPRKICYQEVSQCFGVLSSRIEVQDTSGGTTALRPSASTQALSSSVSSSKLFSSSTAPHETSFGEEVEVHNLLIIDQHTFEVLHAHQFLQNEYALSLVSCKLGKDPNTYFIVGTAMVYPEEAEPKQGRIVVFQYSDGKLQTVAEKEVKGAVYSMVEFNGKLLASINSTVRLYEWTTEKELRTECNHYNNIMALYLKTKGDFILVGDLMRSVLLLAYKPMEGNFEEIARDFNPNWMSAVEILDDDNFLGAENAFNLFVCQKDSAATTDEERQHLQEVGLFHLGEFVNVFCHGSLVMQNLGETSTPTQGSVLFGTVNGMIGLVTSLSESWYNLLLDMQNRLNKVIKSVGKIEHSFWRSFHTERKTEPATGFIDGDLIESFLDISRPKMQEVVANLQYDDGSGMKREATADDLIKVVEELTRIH
Sequence (Q9UKT9 whole entry): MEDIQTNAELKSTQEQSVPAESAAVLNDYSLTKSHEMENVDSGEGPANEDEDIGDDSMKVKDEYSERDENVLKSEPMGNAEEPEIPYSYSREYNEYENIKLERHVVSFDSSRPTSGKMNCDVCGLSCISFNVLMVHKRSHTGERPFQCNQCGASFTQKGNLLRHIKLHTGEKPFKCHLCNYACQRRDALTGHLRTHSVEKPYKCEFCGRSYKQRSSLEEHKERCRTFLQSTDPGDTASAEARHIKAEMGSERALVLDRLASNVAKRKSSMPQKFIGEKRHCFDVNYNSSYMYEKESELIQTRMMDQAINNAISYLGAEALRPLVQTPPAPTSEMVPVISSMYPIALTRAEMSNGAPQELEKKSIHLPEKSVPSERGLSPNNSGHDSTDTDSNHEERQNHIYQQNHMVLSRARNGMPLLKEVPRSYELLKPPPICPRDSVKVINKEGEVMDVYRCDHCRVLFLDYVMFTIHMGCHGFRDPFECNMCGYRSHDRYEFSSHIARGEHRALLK
experiment.summary: IKZF3 reporter degradation assay (HEK 293T IKZF3-mNeonGreen reporter cell line)
Format: cell-based
cond: HEK 293T IKZF3 reporter cells, 24 hours incubation
Consider the following molecules and their measured DC50 readings.

QUERY: Dear colleague, please send me the reported DC50 for O=C1CCC(N2Cc3cc(OC4CCCCC4N4CC(c5ccnc(C(F)(F)F)c5)C4)ccc3C2=O)C(=O)N1 (stereo not drawn) when you can.
RESULT: > 30 µM

QUERY: Entry O=C1CCC(N2Cc3cc(OC4CCCCC4N4CC(c5ccncc5)C4)ccc3C2=O)C(=O)N1 (stereo not drawn) needs its DC50 filled in; supply it.
RESULT: > 30 µM

QUERY: Retrieve DC50 measured for O=C1CCC(N2Cc3cc(OC4CCCCC4N4CC(c5c[nH]c6ccccc56)C4)ccc3C2=O)C(=O)N1 (stereo not drawn) and print it.
RESULT: > 30 µM

###

tgt: IKZF2 (Helios) (Homo sapiens, UniProt Q9UKS7)
Construct: Leu-Asp junction (codons ctcgac before the linker); mScarlet (behind P2A) (C, cleaved yes); expressed in transfected cells
Sequence (Q9UKS7 whole entry, one chain of several): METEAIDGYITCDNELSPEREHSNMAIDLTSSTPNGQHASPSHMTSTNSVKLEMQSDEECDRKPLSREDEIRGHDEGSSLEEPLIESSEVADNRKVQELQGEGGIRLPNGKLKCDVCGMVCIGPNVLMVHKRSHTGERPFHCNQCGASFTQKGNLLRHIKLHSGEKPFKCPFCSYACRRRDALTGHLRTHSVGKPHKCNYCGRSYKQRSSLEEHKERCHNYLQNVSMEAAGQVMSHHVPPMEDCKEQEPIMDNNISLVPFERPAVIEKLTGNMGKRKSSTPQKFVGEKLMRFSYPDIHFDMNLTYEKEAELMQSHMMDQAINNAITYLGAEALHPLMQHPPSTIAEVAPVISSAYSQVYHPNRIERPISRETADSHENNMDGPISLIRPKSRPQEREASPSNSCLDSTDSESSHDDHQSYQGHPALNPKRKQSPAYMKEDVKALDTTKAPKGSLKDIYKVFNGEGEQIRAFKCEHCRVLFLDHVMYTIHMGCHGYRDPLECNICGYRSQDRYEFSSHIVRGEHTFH
experiment.summary: IKZF2 reporter degradation assay (HEK 293T IKZF2-mNeonGreen reporter cell line)
Assay type: cell-based
cond: HEK 293T IKZF2-mNeonGreen reporter, 24 hours incubation
value.type: DC50 (nM)

[I] O=C1CCC(N2Cc3cc(O[C@@H]4CCCC[C@@H]4N4CC(c5ccncc5Cl)C4)ccc3C2=O)C(=O)N1 (mixture of isomers) [Compound 162-B]
[II] O=C1CCC(N2Cc3cc(O[C@@H]4CCC[C@@H]4N4CC(c5ccnc6ccccc56)C4)ccc3C2=O)C(=O)N1 (stereo partly shown) [Compound 194-B]
[III] O=C1CCC(N2Cc3cc(O[C@H]4CCCC[C@@H]4N4CC(c5ccc6ccccc6n5)C4)ccc3C2=O)C(=O)N1 (single isomer, unassigned) [Compound 90-B]
[IV] O=C1CCC(N2Cc3cc(OC4CCC[C@@H]4N4CC(c5ccncc5)C4)ccc3C2=O)C(=O)N1 (mixture of isomers) [Compound 205-B]
QUERY: Using the recorded DC50, list the entries above from smallest to largest. // list labels; follow requested order
RESULT: III, II, I, IV

[I] N#CC1(C(=O)N2CCC(C3CN([C@H]4CCCC[C@@H]4Oc4ccc5c(c4)CN(C4CCC(=O)NC4=O)C5=O)C3)CC2)CCC1 (stereo partly shown) [Compound 30-A]
[II] O=C1CCC(N2Cc3cc(OC4CCCCC4N4CC(C(=O)N5CCCCC5)C4)ccc3C2=O)C(=O)N1 (single isomer, unassigned) [Compound 22-A]
QUERY: Kindly compare I with II and tell me which has the lower DC50 figure. When you have decided, please share the label of that item.
RESULT: I
(I: 0.5 nM, II: 11 nM)

###

tgt: IKZF2 (Helios) (Homo sapiens, UniProt Q96SW2+Q9UKS7)
Construct: Leu-Asp junction (codons ctcgac before the linker); mScarlet (behind P2A) (C, cleaved yes); expressed in transfected cells
Sequence (Q9UKS7 whole entry, one chain of several): as the sequence (Q9UKS7 whole entry, one chain of several) above
experiment.summary: IKZF2 reporter degradation assay (HEK 293T IKZF2-mNeonGreen reporter cell line)
Type: cell-based
cond: HEK-293T, 24 h, @ 1 μM, HEK 293T IKZF2-mNeonGreen reporter, 24 hours incubation
value.type: inhibition at 1 µM (%)

compound	value.type	readout.value
O=C1CCC(N2Cc3cc(O[C@@H]4CCCC[C@@H]4N4CC(c5ccc(C(F)(F)F)nc5)C4)ccc3C2=O)C(=O)N1 (mixture of isomers)	inhibition at 1 µM	81.3
O=C1CCC(N2Cc3cc(O[C@H]4CCCC[C@@H]4N4CC(c5ccc6ccccc6n5)C4)ccc3C2=O)C(=O)N1 (single isomer, unassigned) [Compound 89-B]	inhibition at 1 µM	86.2
O=C1CCC(N2Cc3cc(O[C@H]4CCCC[C@@H]4N4CC(C5CCN(C6CCC6)CC5)C4)ccc3C2=O)C(=O)N1 (stereo partly drawn)	inhibition at 1 µM	60.8
CC1(C(=O)N2CCC(C3CN([C@H]4CCCC[C@@H]4Oc4ccc5c(c4)CN(C4CCC(=O)NC4=O)C5=O)C3)CC2)COC1 (stereo partly drawn)	inhibition at 1 µM	83.2
CC(=O)N1CCC(C2CN([C@H]3CCCC[C@@H]3Oc3ccc4c(c3)CN(C3CCC(=O)NC3=O)C4=O)C2)CC1 (stereo partly drawn)	inhibition at 1 µM	83.1
N#CC1(C(=O)N2CCC(C3CN([C@H]4CCCC[C@@H]4Oc4ccc5c(c4)CN(C4CCC(=O)NC4=O)C5=O)C3)CC2)CC1 (stereo partly drawn)	inhibition at 1 µM	84.6

###

tgt: IKZF3 (Aiolos) (Homo sapiens, UniProt Q9UKT9)
Construct: Leu-Asp junction (codons ctcgac before the linker); mScarlet (behind P2A) (C, cleaved yes); expressed in transfected cells
experiment.summary: IKZF3 reporter degradation assay (HEK 293T IKZF3-mNeonGreen reporter cell line)
Assay type: cell-based
cond: HEK 293T IKZF3-mNeonGreen reporter, 24 hours incubation
value.type: DC50

Some entries whose results are on file:
compound	value.type	readout.value
Cc1ccnc(C2CN([C@H]3CCCC[C@H]3Oc3ccc4c(c3)CN(C3CCC(=O)NC3=O)C4=O)C2)n1 (mixture of isomers) [Compound 185-B]	DC50	> 30 µM
O=C1CCC(N2Cc3cc(O[C@H]4CCCC[C@@H]4N4CC(c5ccc(C(F)(F)F)nc5)C4)ccc3C2=O)C(=O)N1 (single isomer, unassigned) [Compound 127-B]	DC50	0.0633 µM
O=C1CCC(N2Cc3cc(O[C@H]4CCCC[C@@H]4N4CC(c5ccc(Cl)cn5)C4)ccc3C2=O)C(=O)N1 (single isomer, unassigned) [Compound 100-B]	DC50	> 30 µM
O=C1CCC(N2Cc3cc(O[C@@H]4CCCC[C@@H]4N4CC(c5ccncc5F)C4)ccc3C2=O)C(=O)N1 (mixture of isomers) [Compound 153-B]	DC50	> 30 µM
O=C1CCC(N2Cc3cc(OC4CCCCC4N4CC(c5cncnc5)C4)ccc3C2=O)C(=O)N1 (stereo not shown) [Compound 212-B]	DC50	> 30 µM

QUERY: Answer with the recorded DC50 for the compound listed here: O=C1CCC(N2Cc3cc(O[C@H]4CCCC[C@@H]4N4CC(c5cncc(Cl)c5)C4)ccc3C2=O)C(=O)N1 (single isomer, unassigned) [Compound 116-B]
RESULT: > 30 µM

QUERY: Give the reported value of DC50 for this record: CN(C)C(=O)C1CCN(c2ccc(CN3CCC(O)(c4ccc5c(c4)CN(C4CCC(=O)NC4=O)C5=O)CC3)cc2)CC1 (stereo not shown) [Compound 41-A]
RESULT: 0.456 µM

QUERY: Recall and state the measured DC50 for O=C1CCC(N2Cc3cc(O[C@H]4CCCC[C@@H]4N4CC(C5CCOCC5F)C4)ccc3C2=O)C(=O)N1 (stereo partly shown) [Compound 55-A] .
RESULT: > 30 µM

QUERY: Item O=C1CCC(N2Cc3cc(O[C@@H]4CCCC[C@@H]4N4CC(c5ccc6ccccc6n5)C4)ccc3C2=O)C(=O)N1 (mixture of isomers) [Compound 146-B] : provide DC50
RESULT: > 30 µM

QUERY: Supply measured DC50 of O=C1CCC(N2Cc3cc(OC4CCCC4N4CC(c5ccc(C(F)(F)F)cn5)C4)ccc3C2=O)C(=O)N1 (stereo not shown) [Compound 147-B] in your reply.
RESULT: > 30 µM

QUERY: Using known records, supply DC50 for O=C1CCC(N2Cc3cc(O[C@@H]4CCCC[C@@H]4N4CC(c5cc(Cl)ccn5)C4)ccc3C2=O)C(=O)N1 (mixture of isomers) [Compound 165-B]
RESULT: > 30 µM

QUERY: Return DC50 for the following compound: O=C1CCC(N2Cc3cc(O[C@H]4CCCC[C@@H]4N4CC(c5ncc(C(F)(F)F)cn5)C4)ccc3C2=O)C(=O)N1 (mixture of isomers) [Compound 187-B]
RESULT: > 30 µM

QUERY: Look up and state reported DC50 for O=C1CCC(N2Cc3cc(O[C@H]4CCCC[C@@H]4N4CC(c5ccc(C(F)(F)F)nc5)C4)ccc3C2=O)C(=O)N1 (single isomer, unassigned) [Compound 126-B]
RESULT: 0.0866 µM

###

tgt: IKZF2 (Helios) (Homo sapiens)
Construct: Leu-Asp junction (codons ctcgac before the linker); mScarlet (behind P2A) (C, cleaved yes); expressed in transfected cells
experiment.summary: IKZF2 reporter degradation assay (HEK 293T IKZF2-mNeonGreen reporter cell line)
Format: cell-based
cond: HEK 293T IKZF2-mNeonGreen reporter, 24 hours incubation
value.type: DC50 (nM)

compound	DC50, nM
N#Cc1cc(C2CN([C@@H]3CCCC[C@@H]3Oc3ccc4c(c3)CN(C3CCC(=O)NC3=O)C4=O)C2)ccn1 (mixture of isomers)	46

[I] O=C1CCC(N2Cc3cc(O[C@H]4CCCC[C@@H]4N4CC(c5ncc(Cl)cn5)C4)ccc3C2=O)C(=O)N1 (single isomer, unassigned) [Compound 111-B]
[II] O=C1CCC(N2Cc3cc(O[C@H]4CCCC[C@H]4N4CC(c5ccncc5)C4)ccc3C2=O)C(=O)N1 (single isomer, unassigned) [Compound 136-B]
QUERY: Looking only at measured DC50, which entry is lower, I or II ? Refer to your chosen entry by its label in the reply.
RESULT: I
(I: 4 nM, II: 30 nM)
